# subject.of.test: ErbB2 insYVMA (HER2-YVMA, SEQ ID NO: 2) (Homo sapiens, UniProt P04626, INS775YVMA/P1170A)
# Sequence (P04626 with tags, fused parts or gaps INS775YVMA/P1170A limits assumed): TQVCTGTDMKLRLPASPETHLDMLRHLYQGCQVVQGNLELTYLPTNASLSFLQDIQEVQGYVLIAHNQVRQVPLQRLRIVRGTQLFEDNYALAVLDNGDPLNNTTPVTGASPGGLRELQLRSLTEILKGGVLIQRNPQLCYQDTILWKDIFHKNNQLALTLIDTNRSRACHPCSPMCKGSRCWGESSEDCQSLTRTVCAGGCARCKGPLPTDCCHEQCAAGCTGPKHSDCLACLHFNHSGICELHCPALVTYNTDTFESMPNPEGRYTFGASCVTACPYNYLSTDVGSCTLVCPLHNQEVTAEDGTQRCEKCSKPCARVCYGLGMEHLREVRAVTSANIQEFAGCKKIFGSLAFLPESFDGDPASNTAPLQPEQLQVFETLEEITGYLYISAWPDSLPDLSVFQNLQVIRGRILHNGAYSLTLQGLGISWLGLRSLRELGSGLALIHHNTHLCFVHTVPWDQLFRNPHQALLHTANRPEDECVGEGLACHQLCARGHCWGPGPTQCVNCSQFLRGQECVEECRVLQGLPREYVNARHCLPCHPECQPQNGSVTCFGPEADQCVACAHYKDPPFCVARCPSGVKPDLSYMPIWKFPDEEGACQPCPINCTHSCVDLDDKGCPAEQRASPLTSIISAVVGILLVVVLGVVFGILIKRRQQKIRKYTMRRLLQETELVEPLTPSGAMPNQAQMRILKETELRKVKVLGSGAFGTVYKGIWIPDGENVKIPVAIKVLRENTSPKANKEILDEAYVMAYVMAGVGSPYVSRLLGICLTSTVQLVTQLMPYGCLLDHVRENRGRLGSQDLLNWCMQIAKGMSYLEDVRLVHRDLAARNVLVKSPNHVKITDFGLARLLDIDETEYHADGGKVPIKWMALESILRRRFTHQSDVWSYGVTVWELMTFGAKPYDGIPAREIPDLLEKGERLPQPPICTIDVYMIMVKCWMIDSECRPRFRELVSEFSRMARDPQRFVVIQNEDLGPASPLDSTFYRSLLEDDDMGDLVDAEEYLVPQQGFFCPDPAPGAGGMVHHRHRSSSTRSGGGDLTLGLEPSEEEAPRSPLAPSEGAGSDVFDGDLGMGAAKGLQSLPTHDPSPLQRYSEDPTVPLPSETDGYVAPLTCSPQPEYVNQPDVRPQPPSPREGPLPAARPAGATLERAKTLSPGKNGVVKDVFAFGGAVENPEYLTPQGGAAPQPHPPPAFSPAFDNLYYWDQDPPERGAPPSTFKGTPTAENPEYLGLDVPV
# assay.overview: biochemical
# test.parameters: ErbB2 insYVMA enzyme assay; read-out: Assay 1 IC50
quantity: pIC50
Keep it numeric: pIC50 is minus log10 of the concentration in mol/L.

* Cc1cnc(-c2ncc3ncnc(Nc4ccc(Oc5ccc6c(c5)ncn6C)c(C)c4)c3n2)s1 [Example 41] | 6.71
* Cc1cc(Nc2ncnc3cnc(N4CCC(C)(O)CC4)nc23)c(Cl)cc1Oc1ccc2c(c1)ncn2C [Example 482] | 7.12
* Cc1cc(Nc2ncnc3cnc(N(C)[C@@H]4CNC[C@@H]4F)nc23)ccc1Oc1ccc2c(c1)ncn2C [Example 94] | 7.67

Please find the next compound below.
Q: pIC50 for Cc1cc(Nc2ncnc3cnc(N4CCC(F)(F)CC4)nc23)ccc1Oc1ccc2c(c1)ncn2C [Example 236] ?
Ans: 6.83

Values were extracted from patent US11834453B2.
